tested on: SF-295 CNS; test: NCI-60 one-dose screen, 48 h; details: 10 µM unless noted
The panel holds about 83,000 compounds, 20% with a hit somewhere; the sample as a whole holds those more often. Calls of active or inactive are those of the source. Rule for the calls: active = growth percent below 10; inactive = the rest.
Outcome codes: active, inactive

{"CHEMICAL STRING": "Nn1c(Nc2ccc(S(=O)(=O)Nc3ncccn3)cc2)nnc(/C=C/c2c(O)ccc3ccccc23)c1=O", "CLASSIFICATION": "inactive"}
{"CHEMICAL STRING": "CC(C)c1ccc(C(=O)Nc2nc3ccc(O)cc3s2)cc1", "CLASSIFICATION": "active"}
{"CHEMICAL STRING": "O=[N+]([O-])c1cc([N+](=O)[O-])c(C(F)(F)F)cc1NN=C(c1ccc(O)cc1)c1ccc(O)cc1", "CLASSIFICATION": "inactive"}
{"CHEMICAL STRING": "Cc1cc(C)c(S(=O)(=O)/N=c2/n(-c3ccccc3)nc3n2CCN3C2=NCCN2)c(C)c1", "CLASSIFICATION": "inactive"}
{"CHEMICAL STRING": "CC(C)=CC/C=C(/C)[C@H]1CC[C@]2(C)[C@@H]1CC[C@@H]1[C@@]3(C)CCCNC(C)(C)[C@@H]3CC[C@]12C", "CLASSIFICATION": "active"}
{"CHEMICAL STRING": "CCOc1ccc(S(=O)(=O)Nc2ccc3c(c2)N(S(=O)(=O)CC)CCC3)cc1", "CLASSIFICATION": "inactive"}
{"CHEMICAL STRING": "COc1cc2c(c(OC)c1OC)-c1ccc(NNC(N)=S)c(=O)cc1[C@@H](NC(C)=O)CC2", "CLASSIFICATION": "inactive"}
{"CHEMICAL STRING": "Cc1ccc(Cn2c(O)c(N=NC(=O)c3ccc(S(N)(=O)=O)cc3)c3ccccc32)cc1", "CLASSIFICATION": "inactive"}
{"CHEMICAL STRING": "COc1ccc(-c2c(C)nn3c(NCCN4CCOCC4)cc(C)nc23)cc1OC", "CLASSIFICATION": "inactive"}

###

test system: DU-145 prostate; assay: NCI-60 one-dose screen, 48 h; conditions: 10 µM unless noted
Compounds without any hit were thinned out: in the full panel of roughly 83,000, 20% have a hit. Active and inactive are the calls of the source. Rule for the calls: active = growth percent below 10; inactive = the rest.
Outcome codes: active, inactive

{"COMPOUND": "Cc1cnc([C@]23CC[C@@H](C)[C@H](C)[C@H]2C2=CC[C@@H]4[C@@]5(C)Cc6c([nH]c7ccccc67)C(C)(C)[C@@H]5CC[C@@]4(C)[C@]2(C)CC3)o1", "CLASSIFICATION": "inactive"}
{"COMPOUND": "C[n+]1c(-c2ccccc2)c2cc(N)ccc2c2ccccc21", "CLASSIFICATION": "inactive"}
{"COMPOUND": "CC1(C)CC[C@]2(C(=O)O)CC[C@]3(C)C(=CC[C@@H]4[C@@]5(C)C/C(=C/c6ccco6)C(=O)C(C)(C)[C@@H]5CC[C@]43C)[C@@H]2C1", "CLASSIFICATION": "active"}
{"COMPOUND": "COc1ccc(C(=O)CSc2nnc(-c3cc(-c4ccccc4)nc4ccccc34)o2)cc1", "CLASSIFICATION": "inactive"}
{"COMPOUND": "CC1(C)CC[C@]2(C(N)=O)CC[C@]3(C)C(=CC[C@@H]4[C@@]5(C)C/C(=C/c6ccncc6)C(=O)C(C)(C)[C@@H]5CC[C@]43C)[C@@H]2C1", "CLASSIFICATION": "active"}
{"COMPOUND": "O=C1COCCN1c1ccc(NCc2cn(Cc3ccccc3)c3ccccc23)cc1", "CLASSIFICATION": "inactive"}
{"COMPOUND": "CC(C)C1=NOC(=O)C1=Cc1cn(-c2ccccc2)nc1-c1ccc(Br)cc1", "CLASSIFICATION": "inactive"}
{"COMPOUND": "CC1(C)OC2[C@@H](CNC(=O)NC(=O)NC(=O)CI)O[C@@H](n3cnc4c(NC(=O)Nc5ccccc5)ncnc43)[C@H]2O1 (some centres not stated)", "CLASSIFICATION": "inactive"}
{"COMPOUND": "CCOC(=O)C(c1ccccc1)N1C(=O)c2ccccc2C1=O (configuration not stated)", "CLASSIFICATION": "inactive"}
{"COMPOUND": "COc1cc(C(=O)/C=C/c2c(-c3ccc(F)cc3)nc3sccn23)cc(OC)c1OC", "CLASSIFICATION": "inactive"}
{"COMPOUND": "COc1cc(-c2nc(SCCC(C)C)nc(Nc3ccc(S(N)(=O)=O)cc3)c2C#N)cc(OC)c1OC", "CLASSIFICATION": "inactive"}
{"COMPOUND": "O=C(N/N=C\\c1cc(Cl)ccc1O)N/N=C/c1cc(Cl)ccc1O", "CLASSIFICATION": "inactive"}
{"COMPOUND": "C=C(C)[C@@H]1CC[C@]2(C)[C@H](C(=O)C=C3[C@@H]4C[C@](C)(C(=O)N5CCN(C)CC5)CC[C@]4(C)CC[C@]32C)[C@@]1(C)CCC#N", "CLASSIFICATION": "active"}
{"COMPOUND": "Cc1cc(C)c(-c2cc(O)c(-c3c(C)cc(C)cc3C)cc2O)c(C)c1", "CLASSIFICATION": "inactive"}
{"COMPOUND": "Nc1cc(NN=C(c2ccc(O)cc2)c2ccc(O)cc2)c([N+](=O)[O-])cc1[N+](=O)[O-]", "CLASSIFICATION": "inactive"}
{"COMPOUND": "C[n+]1c2ccccc2nc2c(N)cc(N)cc21", "CLASSIFICATION": "inactive"}
{"COMPOUND": "O=C(COc1cccc(/C=C2\\Oc3ccccc3C2=O)c1)c1ccc([N+](=O)[O-])cc1", "CLASSIFICATION": "inactive"}
{"COMPOUND": "O=C(Nc1ccc(Cl)c(C(F)(F)F)c1)Nc1ccc(-c2cccnc2)cc1N1CCC(CO)CC1", "CLASSIFICATION": "inactive"}
{"COMPOUND": "Cc1nc(Cl)cc(N(c2cc(Cl)nc(C)n2)c2ncc(C(=O)Nc3c(C)cccc3Cl)s2)n1", "CLASSIFICATION": "inactive"}
{"COMPOUND": "ClC1=C(Cl)C(Cl)=C(Cl)C1=Cc1ccccc1", "CLASSIFICATION": "active"}
{"COMPOUND": "C=C(C)[C@@H]1CC[C@]2(COCCCN)CC[C@]3(C)[C@H](CC[C@@H]4[C@@](C)(CCCNCCCN)[C@H](C(=C)C)CC[C@]43C)[C@@H]12", "CLASSIFICATION": "active"}
{"COMPOUND": "Cc1ccc(-n2nc3n(/c2=N\\C(=O)NS(=O)(=O)c2ccc(C)cc2)CCN3C2=NCCN2)cc1", "CLASSIFICATION": "inactive"}
{"COMPOUND": "Fc1cc2[nH]ncc2c2c3c(c(-c4cn[nH]c4)nc12)CCCC3", "CLASSIFICATION": "active"}
{"COMPOUND": "O=C(O)c1cccc(CN2CCN(c3cc4c(cc3F)c(=O)c(C(=O)O)cn4C3CC3)CC2)c1O", "CLASSIFICATION": "inactive"}
{"COMPOUND": "C[C@@H](NC(=O)[C@@H](CC(=O)N1CCC(N2CCCCC2)CC1)N1C(=O)[C@@H](N2C(=O)OC[C@@H]2c2ccccc2)[C@H]1/C=C/c1cccc(Cl)c1)c1ccccc1", "CLASSIFICATION": "inactive"}
{"COMPOUND": "C=C1C(=O)O[C@H]2[C@H]1CC/C(COC(=O)NCc1ccc(Cn3c(=O)sn(-c4ccc(Cl)cc4)c3=O)cc1)=C\\CC[C@@]1(C)O[C@@H]21", "CLASSIFICATION": "inactive"}
{"COMPOUND": "Cc1ccc(Cn2c(O)c(N=NC(=O)c3ccc(S(N)(=O)=O)cc3)c3ccccc32)cc1", "CLASSIFICATION": "inactive"}
{"COMPOUND": "COC(=O)[C@]1(C)CC[C@]2(C)CC[C@]3(C)C(=CC(=O)[C@@H]4[C@@]5(C)CCC(=O)NC(C)(C)[C@@H]5CC[C@]43C)[C@@H]2C1", "CLASSIFICATION": "active"}
{"COMPOUND": "CCOC(=O)c1sc2nc(-c3cc(OC)c(OC)c(OC)c3)nc(N3CCOCC3)c2c1C", "CLASSIFICATION": "inactive"}
{"COMPOUND": "COc1ccc(-c2nc3ccccn3c2/C=C/C(=O)c2cc(OC)c(OC)c(OC)c2)cc1OC", "CLASSIFICATION": "inactive"}
{"COMPOUND": "CC1(C)CC[C@]2(C(=O)OC(=O)[C@]34CCC(C)(C)C[C@@H]3C3=CC[C@@H]5[C@@]6(C)CCC(=O)C(C)(C)[C@@H]6CC[C@@]5(C)[C@]3(C)CC4)CC[C@]3(C)C(=CC[C@@H]4[C@@]5(C)CCC(=O)C(C)(C)[C@@H]5CC[C@]43C)[C@H]2C1", "CLASSIFICATION": "inactive"}
{"COMPOUND": "COc1cc2c(=O)[nH]c3cc([N+](=O)[O-])ccc3c2cc1[N+](=O)[O-]", "CLASSIFICATION": "inactive"}
